Test system: Staphylococcus aureus
Assay: Antibiofilm activity against methicillin-resistant Staphylococcus aureus assessed as inhibition of biofilm formation incubated for overnight by crystal violet staining based microtiter plate assay
Format: functional, organism-based
Non-standard residues stand in square brackets, D forms with d. Residues, ends and D or L forms follow the SMILES beside them. Agp = N=C(N)NC[C@H](N)C(=O)O; Dab = NCC[C@H](N)C(=O)O
Recorded endpoint: inhibition

[[record]]
molecule = "CC[C@H](C)[C@H](NC(=O)[C@H](CC(C)C)NC(=O)[C@H](CCCNC(=N)N)NC(=O)[C@@H](N)C(C)C)C(=O)N[C@H](C(=O)N[C@@H](C)C(=O)N[C@H](C(=O)N[C@@H](CCCNC(=N)N)C(=O)N[C@@H](CCN)C(=O)N[C@@H](Cc1c[nH]c2ccccc12)C(=O)N[C@@H](CCCNC(=N)N)C(=O)N[C@@H](CCCNC(=N)N)C(N)=O)C(C)C)C(C)C (H-VRLIVAVR[Dab]WRR-NH2)"
result = "Dose-dependent effect"

[[record]]
molecule = "CC[C@H](C)[C@H](NC(=O)[C@H](CCCNC(=N)N)NC(=O)[C@@H](NC(=O)[C@H](C)NC(=O)[C@@H](NC(=O)[C@@H](NC(=O)[C@H](CC(C)C)NC(=O)[C@H](CCCNC(=N)N)NC(=O)[C@@H](N)CNC(=N)N)[C@@H](C)CC)C(C)C)C(C)C)C(=O)N[C@@H](Cc1c[nH]c2ccccc12)C(=O)N[C@@H](CCCNC(=N)N)C(=O)N[C@@H](CCCNC(=N)N)C(N)=O (H-[Agp]RLIVAVRIWRR-NH2)"
result = "Dose-dependent effect"

[[record]]
molecule = "CC[C@H](C)[C@H](NC(=O)[C@H](CCCNC(=N)N)NC(=O)[C@@H](NC(=O)[C@H](C)NC(=O)[C@@H](NC(=O)[C@H](CNC(=N)N)NC(=O)[C@H](CC(C)C)NC(=O)[C@H](CCCNC(=N)N)NC(=O)[C@@H](N)C(C)C)C(C)C)C(C)C)C(=O)N[C@@H](Cc1c[nH]c2ccccc12)C(=O)N[C@@H](CCCNC(=N)N)C(=O)N[C@@H](CCCNC(=N)N)C(N)=O (H-VRL[Agp]VAVRIWRR-NH2)"
result = "Dose-dependent effect"


---

System: Staphylococcus aureus
Test: Antibiofilm activity against methicillin-resistant Staphylococcus aureus assessed as inhibition of biofilm formation by measuring residual biofilm growth incubated for overnight at 10-fold dilution by crystal violet staining based microtiter plate assay relative to control
Type: functional
Non-standard residues stand in square brackets, D forms with d. Residues, ends and D or L forms follow the SMILES beside them. Agb = N=C(N)NCC[C@H](N)C(=O)O; Orn = NCCC[C@H](N)C(=O)O
Here the recorded residual biofilm growth (% of control) is given for each entry.
Reply with just the number (in %).

[[record]]
compound = "CC[C@H](C)[C@H](NC(=O)[C@H](CCCNC(=N)N)NC(=O)[C@@H](NC(=O)[C@H](C)NC(=O)[C@@H](NC(=O)[C@@H](NC(=O)[C@H](CC(C)C)NC(=O)[C@H](CCCNC(=N)N)NC(=O)[C@@H](N)CCCN)[C@@H](C)CC)C(C)C)C(C)C)C(=O)N[C@@H](Cc1c[nH]c2ccccc12)C(=O)N[C@@H](CCCNC(=N)N)C(=O)N[C@@H](CCCNC(=N)N)C(N)=O (H-[Orn]RLIVAVRIWRR-NH2)"
numeric_value = 12.2

[[record]]
compound = "CC[C@H](C)[C@H](NC(=O)[C@H](CCCNC(=N)N)NC(=O)[C@@H](NC(=O)[C@H](C)NC(=O)[C@@H](NC(=O)[C@@H](NC(=O)[C@H](CC(C)C)NC(=O)[C@H](CCNC(=N)N)NC(=O)[C@@H](N)C(C)C)[C@@H](C)CC)C(C)C)C(C)C)C(=O)N[C@@H](Cc1c[nH]c2ccccc12)C(=O)N[C@@H](CCCNC(=N)N)C(=O)N[C@@H](CCCNC(=N)N)C(N)=O (H-V[Agb]LIVAVRIWRR-NH2)"
numeric_value = 29.6

[[record]]
compound = "CC[C@H](C)[C@H](NC(=O)[C@H](CCCNC(=N)N)NC(=O)[C@@H](NC(=O)[C@H](C)NC(=O)[C@@H](NC(=O)[C@@H](NC(=O)[C@H](CC(C)C)NC(=O)[C@H](CCCNC(=N)N)NC(=O)[C@@H](N)CCNC(=N)N)[C@@H](C)CC)C(C)C)C(C)C)C(=O)N[C@@H](Cc1c[nH]c2ccccc12)C(=O)N[C@@H](CCCNC(=N)N)C(=O)N[C@@H](CCCNC(=N)N)C(N)=O (H-[Agb]RLIVAVRIWRR-NH2)"
numeric_value = 13.6

[[record]]
compound = "CC[C@H](C)[C@H](NC(=O)[C@H](CCCNC(=N)N)NC(=O)[C@H](CCNC(=N)N)NC(=O)[C@H](C)NC(=O)[C@@H](NC(=O)[C@@H](NC(=O)[C@H](CC(C)C)NC(=O)[C@H](CCCNC(=N)N)NC(=O)[C@@H](N)C(C)C)[C@@H](C)CC)C(C)C)C(=O)N[C@@H](Cc1c[nH]c2ccccc12)C(=O)N[C@@H](CCCNC(=N)N)C(=O)N[C@@H](CCCNC(=N)N)C(N)=O (H-VRLIVA[Agb]RIWRR-NH2)"
numeric_value = 104.1


// below: residual biofilm growth (% of control) requested for another compound
Entry CC[C@H](C)[C@H](NC(=O)[C@H](CCCNC(=N)N)NC(=O)[C@@H](NC(=O)[C@H](C)NC(=O)[C@@H](NC(=O)[C@@H](NC(=O)[C@H](CC(C)C)NC(=O)[C@H](CCCNC(=N)N)NC(=O)[C@@H](N)C(C)C)[C@@H](C)CC)C(C)C)C(C)C)C(=O)N[C@@H](Cc1c[nH]c2ccccc12)C(=O)N[C@@H](CCCNC(=N)N)C(=O)N[C@@H](CCCN)C(N)=O (H-VRLIVAVRIWR[Orn]-NH2) : reported residual biofilm growth (% of control) = ? 7.3

Origin of the recorded values: ChEMBL document CHEMBL4376833
